The origin of these recorded values is ChEMBL document CHEMBL1201862.

Test system: BT-549
Assay: NCI tumour cell line growth inhibition, 48 h
The source made the active and inactive calls. No stated cut-off is given here; in the data, active = GI50 up to about 1.1 µM and inactive = higher.
The entries below are paired with their reported GI50.

{"columns": ["COMPOUND", "GI50"],
 "data": [
  ["C[C@]12CCC3C4=C(CCC3C1CCC2=O)C(=O)[C@H]1O[C@H]1C4=O (stereo not given in full)", "1.98 µM (inactive)"],
  ["CC(C)CCC[C@@H](C)[C@H]1CC[C@H]2[C@@H]3CC=C4C[C@@H](OC(=O)c5cccc6c(=O)c7ccccc7[nH]c56)CC[C@]4(C)[C@H]3CC[C@]12C", "> 75 µM (inactive)"],
  ["Clc1ccccc1NN(Cc1ccccn1)c1ccccc1Cl", "25.1 µM (inactive)"],
  ["O=C(/C=C/C(=O)N1CCCC1)N1CCCC1", "> 100 µM (inactive)"],
  ["COC(=O)c1ccccc1CC1Cc2ccc3c(c2C1=O)CCCC3 (stereo not given)", "49.1 µM (inactive)"],
  ["O=c1[nH]nc(-c2cccc(Br)c2)[nH]1", "4.74 µM (inactive)"],
  ["COc1ccc(C2NC(=O)Nc3c2c(=O)oc2c3ccc3ccccc32)cc1 (stereo not given)", "41.6 µM (inactive)"],
  ["COc1ccc(-c2cc(-c3ccc(Nc4ccnc5cc(Cl)ccc45)cc3)[nH]c(=O)c2C#N)c2ccccc12", "16.4 µM (inactive)"],
  ["Nc1nc(N)c2nc(CNc3ccc(C(=O)NC(CCCCNC(=O)c4ccccc4C(=O)O)C(=O)O)cc3)cnc2n1 (stereo not given)", "> 100 µM (inactive)"],
  ["Cc1ccc(/N=N/C(=N/c2ccccc2)c2ccc(N(CCC#N)CCC#N)cc2)cc1", "13.2 µM (inactive)"],
  ["O=C(O)CNc1ccc2c(c1)Cc1cc(Br)ccc1-2", "23.3 µM (inactive)"],
  ["N[C@H](CCC(=O)NCP(=O)(O)O)C(=O)O", "> 100 µM (inactive)"],
  ["CC(C)(C)OC(=O)Cn1ncn(NC(=O)Cc2ccccc2)c1=S", "> 10 µM (inactive)"],
  ["CN(NC(=O)c1cccs1)C1=NCCCCN1", "> 100 µM (inactive)"],
  ["O=c1cc(-c2ccccc2)oc2c1ccc1nc3ccccc3c(O)c12", "33.5 µM (inactive)"],
  ["COc1ccc(C(=O)O[C@@H]2CCN3CC[C@H](C)[C@H]23)cc1", "> 100 µM (inactive)"],
  ["N#Cc1c(-c2ccc(Cl)cc2)c(C#N)c(=O)n(NS(=O)(=O)c2ccccc2)c1-c1ccccc1", "> 25 µM (inactive)"],
  ["O=[N+]([O-])c1ccc(-c2ccc([C@H]3CC(c4cc(F)c(Cl)cc4Cl)=NN3)o2)cc1", "25.4 µM (inactive)"],
  ["O=C1CCC(CCc2nc3ccccc3[nH]2)(c2ccccc2)C(=O)N1 (stereo not given)", "> 100 µM (inactive)"],
  ["O=C1C(Cl)=C(NCCc2ccc(O)cc2)C(=O)c2c(O)ccc(O)c21", "> 10 µM (inactive)"],
  ["O=C1/C(=C(/Br)I)c2ccccc2-c2ccccc21", "7.03 µM (inactive)"],
  ["O=C1CC(c2ccc(O)cc2)C2(O1)C(=O)OC(C(O)CO)C2O (stereo not given)", "> 100 µM (inactive)"],
  ["c1ccc2sc(SCN(C3CCCCC3)C3CCCCC3)nc2c1", "> 100 µM (inactive)"],
  ["CC(C)CCC[C@@H](C)C1CCC2[C@@H]3CCC4CC(CCC=C(c5cc(Cl)c(OC(=O)c6ccccc6)c(C(=O)O)c5)c5cc(Cl)c(OC(=O)c6ccccc6)c(C(=O)O)c5)CC[C@]4(C)C3CC[C@@]21C (stereo not given in full)", "> 100 µM (inactive)"],
  ["c1ccc(C(CCN2CC3CCC(CC3)C2)c2ccccc2)cc1", "42.2 µM (inactive)"]
]}
